Data origin: patent US20080207501A1

# system_tested: calcitonin receptor of CHO cells
# method_description: cell-based or functional assay
Ends that are not written are not given here.
Property: EC50, cAMP (AlphaScreen), CHO cells, Average; scope: individual binders
Express it in nM; write the number only.

Use the examples below as a reference point.
binder | endpoint_result
Human Adrenomedullin (ends and bridges not checked) peptide: YRQSMNNFQGLRSFGCRFGTCTVQKLAHQIYQFTDKDKDNVAPRSKISPQGY-NH2 | 1740
KCNTATCATQRLANFLVRSSNNLGPVLPPTNVGSNTY (peptide, UniProt P12969 38-74, looked up) [rat amylin] | 24
CGNLSTCMLGTYTQDFNKFHTFPQTAIGVGAP-NH2 (ends and bridges not checked) [Human Calcitonin] | 0.097

Task: Identify the reported EC50, cAMP (AlphaScreen), CHO cells, Average for the following entry. TQAQLLRVGCVLGTCQVQNLSHRLWQLMGPAGRQDSAPVDPSSPHSY-NH2 (ends and bridges not checked, also called Amylin Family Polypeptide-6; intermedin) [Human AFP-6 [1-47]]
Result: 9.63
